Hi there, I'd appreciate the recorded Ki for every entry that follows.
target.desc: A2A adenosine receptors (Rattus norvegicus, UniProt P30543)
Construct: from tissue
Sequence (P30543 whole entry): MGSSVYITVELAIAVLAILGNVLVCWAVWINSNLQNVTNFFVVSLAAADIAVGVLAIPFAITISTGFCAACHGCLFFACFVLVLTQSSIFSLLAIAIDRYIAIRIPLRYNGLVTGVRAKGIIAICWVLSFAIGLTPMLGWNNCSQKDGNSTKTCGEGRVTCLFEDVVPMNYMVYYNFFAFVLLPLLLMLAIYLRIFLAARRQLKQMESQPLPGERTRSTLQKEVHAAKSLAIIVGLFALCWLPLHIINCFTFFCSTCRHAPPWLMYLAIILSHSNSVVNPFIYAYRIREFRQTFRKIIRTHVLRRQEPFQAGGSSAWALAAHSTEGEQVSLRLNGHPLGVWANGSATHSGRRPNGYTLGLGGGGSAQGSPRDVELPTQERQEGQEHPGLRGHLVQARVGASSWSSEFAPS
measurement.protocol: Displacement of specific [3H]CGS 21680 binding in rat striatal membranes
recorded.conditions: Table 2, compounds 33-58; [3H]CGS 21680, rat striatal membranes, n = 3-6; read-out: rA2A Ki ± S.E.M.
Answers are plain numbers, in µM.

Field: example entries. Status: answers known.
[[record]]
chemical_smiles = "CCCOC(=O)c1c(C)nc(-c2ccccc2)c(C(=O)OCC)c1C"
recorded_number = 24.5

[[record]]
chemical_smiles = "CCOC(=O)c1c(C2CCCC2)nc(CC)c(C(=O)SCC)c1CC"
recorded_number = 26.1

[[record]]
chemical_smiles = "CCOC(=O)c1c(-c2ccccc2)nc(CC)c(C(=O)SCC)c1CC"
recorded_number = 6.13

[[record]]
chemical_smiles = "CCCSC(=O)c1c(CC)nc(-c2ccccc2)c(C(=O)OCC)c1CC"
recorded_number = 15.7

[[record]]
chemical_smiles = "CCOC(=O)c1c(-c2ccccc2)nc(C)c(C(=O)SCC)c1CC"
recorded_number = 14.9


Record Ki for all entries; do not skip any.
1. CCOC(=O)c1c(C)nc(C2CCC2)c(C(=O)OCc2ccccc2)c1C#Cc1ccccc1
2. CCCOC(=O)c1c(-c2cccc(Cl)c2)nc(CC)c(C(=O)SCCC)c1CC
3. CCOC(=O)c1c(CC)nc(-c2ccccc2)c(C(=O)OCC)c1C
4. CCOC(=O)c1c(C)nc(-c2ccccc2)c(C(=O)OCC)c1C=O
5. CCCc1c(C(=O)SCC)c(C)nc(-c2ccccc2)c1C(=O)OCC
6. CCSC(=O)c1c(CC)nc(-c2ccccc2)c(C(=O)OCCO)c1CC
7. CCSC(=O)c1c(C)nc(-c2ccccc2)c(C(=O)OCc2ccccc2)c1CC
8. CCCc1nc(-c2ccccc2)c(C(=O)OCC)c(CC)c1C(=O)SCC

Completion:
1: 27.6; 2: 24.1; 3: 13.4; 4: 2.56; 5: 7.53; 6: 10; 7: 12.8; 8: 2.82

// for each molecule below, give its Ki
1. CCOC(=O)c1c(-c2ccccc2)nc(C)c(C(=O)SCCOC)c1CC
2. CCOC(=O)c1c(C)nc(-c2ccccc2)c(C(=O)OCC)c1CC

Completion:
1: 7.98; 2: 3.69

Batch request: Ki for each of the following molecules.
1. CCOC(=O)c1c(C)nc(-c2ccccc2)c(C(=O)OCC)c1C(OC)OC
2. CCOC(=O)c1c(-c2ccccc2)nc(CCOC)c(C(=O)SCC)c1CC
3. CCOC(=O)c1c(-c2cccc(Cl)c2)nc(CC)c(C(=O)SCC)c1CC
4. CCOC(=O)c1c(C)nc(C2CCCC2)c(C(=O)OCc2ccccc2)c1C#Cc1ccccc1
5. CCOC(=O)c1c(C)nc(-c2ccccc2)c(C(=O)OCC)c1C=Cc1ccccc1

Completion:
1: 2.88; 2: 12.6; 3: 8.91; 4: 22.9; 5: 2.4

====

target.desc: A1 adenosine receptors (Rattus norvegicus)
Construct: from tissue
Sequence (P25099 whole entry): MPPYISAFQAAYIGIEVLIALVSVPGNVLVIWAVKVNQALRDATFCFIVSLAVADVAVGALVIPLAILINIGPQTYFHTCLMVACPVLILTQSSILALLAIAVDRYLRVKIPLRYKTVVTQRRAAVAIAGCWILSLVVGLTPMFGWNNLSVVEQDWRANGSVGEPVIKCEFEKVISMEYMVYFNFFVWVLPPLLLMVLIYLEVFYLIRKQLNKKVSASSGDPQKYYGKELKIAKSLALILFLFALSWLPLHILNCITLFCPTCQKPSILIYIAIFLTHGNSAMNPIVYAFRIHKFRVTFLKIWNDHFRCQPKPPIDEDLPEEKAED
measurement.protocol: Displacement of specific [3H]R-PIA binding in rat brain membranes
recorded.conditions: Table 2; at 10^−4 M
Would you mind telling me the reported rA1 percentage of specific binding displaced of each entry?

As a guide, the following entries are already answered.
[[record]]
molecule = "CCCc1c(C(=O)SCC)c(C)nc(-c2ccccc2)c1C(=O)OCC [Compound 38]"
result = "29 ± 6% (10^−4)"

[[record]]
molecule = "CCCOC(=O)c1c(-c2ccccc2)nc(CC)c(C(=O)SCCOC2CCCCO2)c1CCC (stereo not drawn) [Compound 13]"
result = "18 ± 1% (10^−4)"

[[record]]
molecule = "CCOC(=O)c1c(-c2ccccc2)nc(C2CCC2)c(C(=O)SCC)c1CC [Compound 58]"
result = "30% (10^−4)"

[[record]]
molecule = "CCOC(=O)c1c(-c2ccccc2)nc(CC)c(C(=O)SCC)c1CC [Compound 48]"
result = "41 ± 6% (10^−4)"

[[record]]
molecule = "CCOC(=O)c1c(-c2ccccc2)nc(C)c(C(=O)SCCOC)c1CC [Compound 37]"
result = "36 ± 11% (10^−4)"


Kindly consider the entry below.
Prompt: GET /values?readout=rA1 percentage of specific binding displaced&item= CCSC(=O)c1c(C)nc(-c2ccccc2)c(C(=O)OCc2ccccc2)c1CC [Compound 39]
Completion: 20 ± 8% (10^−4)

====

target.desc: rat A3 receptors (Rattus norvegicus, UniProt P28647)
Construct: expressed in transfected cells
measurement.protocol: Displacement of specific [125I]AB-MECA binding at rat A3 receptors stably expressed in CHO cells
recorded.conditions: Table 4; [125I]AB-MECA, CHO cells, n = 3-5; read-out: rA3 Ki
property: pKi
Numbers only, as −log10 of the molar value.

Each compound below has a recorded value; state its pKi.
1. CCCc1nc(-c2ccccc2)c(C(=O)OCC)c(CC)c1C(=O)SCC
2. CCCOC(=O)c1c(-c2ccccc2)nc(CC)c(C(=O)SCC)c1CCC [Compound 49b]
3. CCSC(=O)c1c(C)nc(-c2ccccc2)c(C(=O)OCc2ccccc2)c1CC

Completion:
6.23
6.95
5.74

====

target.desc: A2A adenosine receptors (Rattus norvegicus)
Construct: from tissue
measurement.protocol: Displacement of specific [3H]CGS 21680 binding in rat striatal membranes
recorded.conditions: Table 3; [3H]CGS 21680, rat striatal membranes, n = 3-6; read-out: rA2A Ki ± S.E.M.
property: pKi
One number for each entry, as −log10 of the molar value.

[[record]]
molecule = "CCOC(=O)C1=C(c2ccccc2)NC(CC)=C(C(=O)SCC)C1CC (racemic) [Compound 75]"
recorded_number = 4.54


Working through the 2 molecules below one at a time, give pKi for each.
1. CCCOC(=O)C1=C(C)NC(c2ccccc2)=C(C(=O)OCC)C1C (racemic) [Compound 60]
2. CCOC(=O)C1=C(c2ccccc2)NC(C)=C(C(=O)SCC)C1CC (racemic) [Compound 62]

Completion:
4.54
4.26

====

target.desc: rat A3 receptors (Rattus norvegicus)
Construct: expressed in transfected cells
Sequence (P28647 1-320): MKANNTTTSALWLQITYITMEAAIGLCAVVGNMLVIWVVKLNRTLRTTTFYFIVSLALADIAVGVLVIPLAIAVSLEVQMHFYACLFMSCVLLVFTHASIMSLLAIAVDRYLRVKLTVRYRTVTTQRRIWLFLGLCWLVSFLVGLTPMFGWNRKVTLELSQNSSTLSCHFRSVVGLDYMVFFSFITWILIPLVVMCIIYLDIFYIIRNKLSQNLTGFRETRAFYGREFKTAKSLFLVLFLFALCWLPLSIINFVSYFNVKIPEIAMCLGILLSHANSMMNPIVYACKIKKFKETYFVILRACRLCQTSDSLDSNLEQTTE
measurement.protocol: Displacement of specific [125I]AB-MECA binding at rat A3 receptors stably expressed in CHO cells
property: Ki (nM)
One number for each entry, in nM.

Prompt: Entry under review: CCCOC(=O)c1c(-c2cccc(Cl)c2)nc(CC)c(C(=O)SCCC)c1CC [Compound 54] . Reported Ki?
Completion: 814

====

target.desc: rat A3 receptors (Rattus norvegicus)
Construct: expressed in transfected cells
measurement.protocol: Displacement of specific [125I]AB-MECA binding at rat A3 receptors stably expressed in CHO cells
recorded.conditions: Table 4; ratio of affinities rat A1 vs rat A3
Would you kindly list rA1/rA3 for each of these compounds?

Previously resolved entries follow.
[[record]]
compound = "CCCSC(=O)c1c(CC)nc(-c2ccccc2)c(C(=O)OCC)c1CC"
result = 28

[[record]]
compound = "CCCCc1nc(-c2ccccc2)c(C(=O)OCC)c(CC)c1C(=O)SCC"
result = 18

[[record]]
compound = "CCOC(=O)c1c(-c2cccc(Cl)c2)nc(CC)c(C(=O)SCC)c1CC"
result = 19

[[record]]
compound = "CCOC(=O)c1c(-c2ccccc2)nc(CC)c(C(=O)SCC)c1CC"
result = ">100"

[[record]]
compound = "CCCc1nc(-c2ccccc2)c(C(=O)OCC)c(CC)c1C(=O)SCC"
result = 28

[[record]]
compound = "CCOC(=O)c1c(C2CCCC2)nc(CC)c(C(=O)SCC)c1CC"
result = ">20"

[[record]]
compound = "CCCc1c(C(=O)SCC)c(C)nc(-c2ccccc2)c1C(=O)OCC"
result = ">100"

[[record]]
compound = "CCSC(=O)C1=C(C)NC(c2ccccc2)=C(C(=O)OCc2ccccc2)C1CC (racemic)"
result = ">20"


Prompt: Which rA1/rA3 is listed for `CCOC(=O)c1c(-c2ccccc2)nc(C)c(C(=O)SCC)c1CC` ?
Completion: 10

====

Would you kindly list pKi for each of these compounds?
target.desc: rat A3 receptors (Rattus norvegicus)
Construct: expressed in transfected cells
measurement.protocol: Displacement of specific [125I]AB-MECA binding at rat A3 receptors stably expressed in CHO cells
recorded.conditions: Table 4; [125I]AB-MECA, CHO cells, n = 3-5; read-out: rA3 Ki
Answers are plain numbers, as −log10 of the molar value.

Use these answered entries as a reference point.
[[record]]
compound = "CCOC(=O)C1=C(c2ccccc2)NC(C)=C(C(=O)SCC)C1CC (racemic)"
property = "pKi"
recorded_number = 5.34

[[record]]
compound = "CCOC(=O)c1c(-c2ccccc2)nc(CC)c(C(=O)SCC)c1CC"
property = "pKi"
recorded_number = 6.39

[[record]]
compound = "CCCC1=C(C(=O)SCC)C(CC)C(C(=O)OCC)=C(c2ccccc2)N1 (racemic)"
property = "pKi"
recorded_number = 5.56


Prompt: Given the compound CCOC(=O)C1=C(c2ccccc2)NC(CC)=C(C(=O)SCC)C1CC (racemic) , what is its reported pKi?
Completion: 5.60

The reported measurements were obtained from patent US6376521B1.
